# reported MIC; entries follow
Test system: Escherichia coli
Assay: Broth microdilution MIC (Example 12)
Format: cell-based
Details: E. coli MMX 5745; KPC
All answers are understood in µg/mL, so give the number only.

| Structure smiles string | Meas value |
| --- | --- |
| C[C@@H](O)[C@H]1C(=O)N2C(C(=O)O)=C(S[C@@H]3CN[C@H](C(=O)N(C)C)C3)[C@H](C)[C@H]12 | 2 |

# `NCC[C@H](O)C(=O)N[C@@H]1C[C@H](N)[C@@H](O[C@H]2O[C@H](CN)[C@@H](O)[C@H](O)[C@H]2O)[C@H](O)[C@H]1O[C@H]1O[C@H](CO)[C@@H](O)[C@H](N)[C@H]1O` with Escherichia coli: MIC is 0.5

# `C[C@H]1COc2c(N3CCN(C)CC3)c(F)cc3c(=O)c(C(=O)O)cn1c23` with Escherichia coli: MIC is 8

# `CC(C)(O/N=C(\C(=O)N[C@@H]1C(=O)N2C(C(=O)[O-])=C(C[n+]3ccccc3)CS[C@H]12)c1csc(N)n1)C(=O)O` with Escherichia coli: MIC is 32
